Reference for the values: patent US7256203B2

tested on: Trypanosoma brucei rhodesiense; test: In vitro anti-protozoan data, T. b. r.; type: cell-based; settings: Trypanosoma brucei, RHODESIENSE, read-out: IC-50 values versus Trypanosoma brucei rhodesiense (T.b.r.)
property.label: IC50

### Prompt Reported IC50 for Trypanosoma brucei rhodesiense, given N=C(N)c1ccc(-c2ccc(-c3ccc(C(=N)N)cn3)o2)cc1 ?
### Response < 10 nM

###

Record form. Attribute: melting point. Fill in for each entry.

### Prompt Name the reported melting point value associated with the compound CC(=O)ONC(=N)c1ccc(-c2ccc(-c3ccc(C(=N)NOC(C)=O)cc3C)o2)nc1
### Response 203 to 205 °C

### Prompt Lookup N=C(NO)c1ccc(Cc2ccc(-c3ccc(C(=N)NO)cn3)o2)cc1
### Response 214 to 216 °C

### Prompt Another: CC(=O)ONC(=N)c1ccc(-c2ccc(-c3ccc(C(=N)NOC(C)=O)cn3)o2)nc1
### Response 299 to 300 °C

### Prompt Entry to check: CC(=O)ONC(=N)c1ccc(-c2ccc(-c3ccc(C(=N)NOC(C)=O)nc3)o2)cc1
### Response 267 to 270 °C

### Prompt Subsequent entry: N=C(NO)c1ccc(-c2ccc(-c3ccc(C(=N)NO)cn3)o2)nc1
### Response 272 to 274 °C (dec.)

### Prompt Please give the result for N=C(NO)c1ccc(-c2ccc(C=Cc3ccccc3)o2)nc1 too.
### Response 230 to 231 °C

### Prompt Note, next up: N=C(NO)c1ccc(-c2ccc(-c3ccc(C(=N)NO)nc3)o2)cc1
### Response 276 to 279 °C

### Prompt Now the compound N=C(NO)c1ccc(-c2ccc(-c3ccc(C(=N)NO)cn3)s2)cc1
### Response 293 to 295 °C (dec.)

### Prompt Would you kindly repeat that for CONC(=N)c1ccc(-c2ccc(-c3ccc(C(=N)NOC)nc3)o2)cc1 ?
### Response 142 to 143 °C

### Prompt Param item: Cc1cc(C(=N)NO)ccc1-c1ccc(-c2ccc(C(=N)NO)cn2)o1
### Response 196 to 198 °C

### Prompt Next compound up: CC(=O)ONC(=N)c1ccc(Cc2ccc(-c3ccc(C(=N)NOC(C)=O)cn3)o2)cc1
### Response 194 to 196 °C

###

tested on: Trypanosoma brucei rhodesiense; experiment: In vitro anti-protozoan data, T. b. r.; format: cell-based; details: in vitro; read-out: T. b. r. IC50
property.label: pIC50
Reminder that pIC50 means the negative base-10 logarithm of the concentration expressed in mol/L.

### Prompt Notebook entry, Trypanosoma brucei rhodesiense assay: pIC50 of CONC(=N)c1ccc(-c2ccc(-c3ccc(C(=N)NOC)cn3)s2)cc1 = ?
### Response 5.03

### Prompt Now try N=C(N)c1ccc(-c2ccc(-c3ccc(C(=N)N)nc3)o2)cc1 .
### Response 8.51

### Prompt Now try N=C(N)c1ccc(-c2ccc(-c3ccc(C(=N)N)cn3)o2)nc1 .
### Response 7.68
